# Assayed System: GDP-loaded KRAS-G12C (Homo sapiens, UniProt P01116, G12C)
# Sequence (P01116 1-188 isoform P01116-2 G12C): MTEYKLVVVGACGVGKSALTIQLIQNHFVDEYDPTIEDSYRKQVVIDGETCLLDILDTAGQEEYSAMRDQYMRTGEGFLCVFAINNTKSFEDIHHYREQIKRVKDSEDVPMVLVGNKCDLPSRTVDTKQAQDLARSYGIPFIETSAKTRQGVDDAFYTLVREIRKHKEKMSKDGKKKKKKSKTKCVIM
# Assay Method Text: KRAS (GDP) biochemical TR-FRET probe displacement assay, G12C
# Assay Context: 2 hours at room temperature
Readout: log10 IC50 (log10 of the value in nM)
// units: nM (pre-log); metric: IC50; scale: log10

Consider the worked cases shown below.
C#Cc1c(F)ccc2cccc(-c3ncc4c(N5CC6(F)CCC(F)(C5)N6)nc(OC[C@@]56CCCN5C[C@H](F)C6)nc4c3F)c12 [Example 1-2]    1.58
C#Cc1c(F)ccc2cc(O)cc(-c3ncc4c(N5C[C@]6(F)CC[C@](F)(C5)N6)nc(OC[C@@]56CCCN5C[C@H](F)C6)nc4c3F)c12 [Example 1-1]    -1.00
N#Cc1c(N)sc2c(F)ccc(-c3c(Cl)cc4c(N5CC6(F)CCC(F)(C5)N6)nc(OC[C@@]56CCCN5C[C@H](F)C6)nc4c3F)c12 (single isomer, unassigned) [Example 8-1]    0.01
C#Cc1c(F)c(F)cc2cc(O)cc(-c3c(F)cc4c(N5CC6(F)CCC(F)(C5)N6)nc(OCC56CCCN5CCC6)nc4c3F)c12 [Example 2-5]    -0.82
N#Cc1c(N)sc2c(F)ccc(-c3c(Cl)cc4c(N5CC6(F)CCC(F)(C5)N6)nc(OC[C@@]56CCCN5C[C@H](F)C6)nc4c3F)c12 (single isomer, unassigned) [Example 8-2]    1.37

Prompt line: log10 IC50 lookup needed for Cc1c(F)c(N)cc(-c2ncc3c(N4CC5(F)CCC(F)(C4)N5)nc(OC[C@@]45CCCN4C[C@H](F)C5)nc3c2F)c1C(F)(F)F [Example 6-4] , thanks.
Response line: 1.30

Prompt line: Can you check C#Cc1c(F)ccc2cc(N)cc(-c3ncc4c(N5CC6(F)CCC(F)(C5)N6)nc(OC[C@@]56CCCN5C[C@H](F)C6)nc4c3F)c12 [Example 5-1] next?
Response line: 0.44

Prompt line: Follow-up entry: C#Cc1c(F)ccc2cc(N)cc(-c3ncc4c(N5CC6(F)CCC(F)(C5)N6)nc(OCC56CCCN5CCC6)nc4c3F)c12 [Example 5-3]
Response line: 0.83

Prompt line: Try this compound too: C#Cc1c(F)ccc2cc(O)cc(-c3c(Cl)cc4c(N5CC6(F)CCC(F)(C5)N6)nc(OC[C@@]56CCCN5C[C@H](F)C6)nc4c3F)c12 [Example 2-6]
Response line: 0.45

Prompt line: Record: C#Cc1c(F)ccc2cc(O)cc(-c3ncc4c(N5CC6(F)CCC(F)(C5)N6)nc(OC[C@@H]5CC[C@]6(COc7cc(C(F)(F)F)ncn7)CCCN56)nc4c3F)c12 [Example 2-11]
Response line: 1.23

Prompt line: And the next one, C#Cc1c(F)ccc2cc(N)cc(-c3ncc4c(N5CC6(F)CCC(F)(C5)N6)nc(OC[C@@]56CCCN5[C@H](COc5cc(C(F)(F)F)ncn5)CC6)nc4c3F)c12 [Example 5-2] ?
Response line: 0.14

---

# Assayed System: GDP-loaded KRAS-G12D (Homo sapiens, UniProt P01116, G12D)
# Sequence (P01116 1-188 isoform P01116-2 G12D): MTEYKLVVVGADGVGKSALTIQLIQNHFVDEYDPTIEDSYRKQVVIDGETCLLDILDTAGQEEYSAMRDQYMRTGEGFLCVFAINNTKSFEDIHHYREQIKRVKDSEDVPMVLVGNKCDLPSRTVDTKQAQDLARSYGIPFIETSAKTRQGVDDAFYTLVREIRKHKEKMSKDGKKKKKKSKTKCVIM
# Assay Method Text: KRAS (GDP) biochemical TR-FRET probe displacement assay, G12D
# Assay Context: 2 hours at room temperature
pIC50: −log10 of the molar value.
Given measured pIC50, output Yes if it is greater than or equal to 8 and No if not.

Example entries begin here.
C#Cc1c(F)ccc2cc(O)cc(-c3ncc4c(N5CC6(F)CCC(F)(C5)N6)nc(OC[C@@]56CCCN5[C@H](COc5cc(C(F)(F)F)cnn5)CC6)nc4c3F)c12 [Example 2-4]    Yes
C#Cc1c(F)c(F)cc2cc(O)cc(-c3c(F)cc4c(N5CC6(F)CCC(F)(C5)N6)nc(OCC56CCCN5CCC6)nc4c3F)c12 [Example 2-5]    Yes
Cc1cc(-c2c(F)cc3c(N4CC5(F)CCC(F)(C4)N5)nc(OC[C@@]45CCCN4C[C@H](F)C5)nc3c2F)c2cccnc2c1N [Example 2-7]    No
C#Cc1c(F)ccc2cc(O)cc(-c3c(Cl)cc4c(N5CC6(F)CCC(F)(C5)N6)nc(OC[C@@]56CCCN5C[C@H](F)C6)nc4c3F)c12 [Example 2-6]    No
Cc1c(F)c(N)cc(-c2ncc3c(N4CC5(F)CCC(F)(C4)N5)nc(OC[C@@]45CCCN4C[C@H](F)C5)nc3c2F)c1C(F)(F)F [Example 6-4]    No

Prompt line: Determine whether measured pIC50 meets or exceeds 8 for Fc1cc2c(N3CC4(F)CCC(F)(C3)N4)nc(OC[C@@]34CCCN3C[C@H](F)C4)nc2c(F)c1-c1csc2ncnc(Cl)c12 [Example 6-2]
Response line: No

Prompt line: Same thing, different molecule: C#Cc1c(F)ccc2cc(N)cc(-c3ncc4c(N5CC6(F)CCC(F)(C5)N6)nc(OCC56CCCN5CCC6)nc4c3F)c12 [Example 5-3]
Response line: No

Prompt line: What about C#Cc1c(F)ccc2cc(O)cc(-c3c(F)cc4c(N5CC6(F)CCC(F)(C5)N6)nc(OC[C@@]56CCCN5C[C@H](F)C6)nc4c3F)c12 (single isomer, unassigned) [Example 9-1] ?
Response line: Yes

Prompt line: Follow-up entry: Fc1ccc2nc(C(F)(F)F)c(-c3c(F)cc4c(N5CC6(F)CCC(F)(C5)N6)nc(OC[C@@]56CCCN5C[C@H](F)C6)nc4c3F)n2c1 [Example 6-3]
Response line: No

---

# Assayed System: GDP-loaded KRAS-G12D (Homo sapiens, UniProt P01116, G12D)
# Assay Method Text: KRAS (GDP) biochemical TR-FRET probe displacement assay, G12D
# Assay Context: 2 hours at room temperature
Readout: IC50 (nM)
The reply should contain only the number, in nM.

C#Cc1c(F)ccc2cc(O)cc(-c3ncc4c(N5C[C@]6(F)CC[C@](F)(C5)N6)nc(OC[C@@]56CCCN5C[C@H](F)C6)nc4c3F)c12    0.14
C#Cc1c(F)ccc2cc(N)cc(-c3ncc4c(N5CC6(F)CCC(F)(C5)N6)nc(OC[C@@]56CCCN5C[C@H](F)C6)nc4c3F)c12    15.1

Now, please, on to the next compound.
Prompt line: What value of IC50 has been reported for the following compound? C#Cc1c(F)ccc2cc(N)cc(-c3c(F)cc4c(N5CC6(F)CCC(F)(C5)N6)nc(OCC56CCCN5CCC6)nc4c3F)c12
Response line: 17.4

---

# reported EC50; entries follow
# Tested on: cellular pERK in MIA-PaCa-2 (KRAS-G12C) cell-line
# Assay Method Text: Cell based pERK assay, MIA-PaCa-2
# Assay Context: Homo sapiens; MIA-PaCa-2 (KRAS-G12C) cells, 2 hours compound incubation, HTRF Phospho-ERK1/2; read-out: MIAPaCa2 pERK EC50
# Method: Compounds were tested in a 384-well assay format for their ability to inhibit cellular pERK in Kuramochi (WT KRAS), MIA-PaCa-2 (KRAS-G12C), ASPC-1 (KRAS G12D), and NCI-H441 (KRAS-G12V) cell-lines. Compounds were serially diluted (1:3) in DMSO. […] HTRF ratio (665 nm/615 nm) was read by Envision multimode reader (PerkinElmer) the next day. […]
Numeric only. Scale: nM

CCc1c(F)ccc2cccc(-c3ncc4c(N5CC6(F)CCC(F)(C5)N6)nc(OC[C@@]56CCCN5C[C@H](F)C6)nc4c3F)c12    301

Please find the next compound below.
Prompt line: Provide the documented EC50 with cellular pERK in MIA-PaCa-2 (KRAS-G12C) cell-line as the system for C#Cc1c(F)ccc2cc(O)cc(-c3ncc4c(N5CC6(F)CCC(F)(C5)N6)nc(OC[C@@H]5CC[C@]6(COc7cc(C(F)(F)F)ncn7)CCCN56)nc4c3F)c12
Response line: 5.79

---

# Assayed System: GDP-loaded KRAS-G12V (Homo sapiens, UniProt P01116, G12V)
# Sequence (P01116 1-188 isoform P01116-2 G12V): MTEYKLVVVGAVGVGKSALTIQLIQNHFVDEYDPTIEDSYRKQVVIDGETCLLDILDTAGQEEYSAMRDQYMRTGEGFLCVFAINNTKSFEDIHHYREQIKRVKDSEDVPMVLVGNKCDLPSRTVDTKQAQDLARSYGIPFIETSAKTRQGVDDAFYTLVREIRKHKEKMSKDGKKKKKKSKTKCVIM
# Assay Method Text: KRAS (GDP) biochemical TR-FRET probe displacement assay, G12V
# Assay Context: 2 hours at room temperature
Reported IC50 values for the following compounds.

Prompt line: Data request, read-out IC50, for Nc1cc2ccc(F)cc2c(-c2c(Cl)cc3c(N4CC5(F)CCC(F)(C4)N5)nc(OC[C@@]45CCCN4C[C@H](F)C5)nc3c2F)n1 [Example 7-2]
Response line: > 0.1 µM

Prompt line: What do you have for C#Cc1c(F)ccc2cc(O)cc(-c3c(F)cc4c(N5CC6(F)CCC(F)(C5)N6)nc(OC[C@@]56CCCN5C[C@H](F)C6)nc4c3F)c12 (single isomer, unassigned) [Example 9-1] ?
Response line: 0.00019 µM

Prompt line: Check C#Cc1c(F)ccc2cc(O)cc(-c3c(F)cc4c(N5CC6(F)CCC(F)(C5)N6)nc(OC[C@@]56CCCN5C[C@H](F)C6)nc4c3F)c12 (single isomer, unassigned) [Example 9-2] too.
Response line: 0.0726 µM

Prompt line: Try the compound Cc1cc(-c2ncc3c(N4CC5(F)CCC(F)(C4)N5)nc(OC[C@@]45CCCN4C[C@H](F)C5)nc3c2F)c2cccnc2c1N [Example 2-8]
Response line: > 0.1 µM
